Assay: HepG2 liver cancer cell viability effects, profiling panel, resazurin fluorescence, 24 h, PK04 Diversity Set (AID 1172); note: test concentration not given here
Conditions: higher = more signal
Classification field: Met = z-score at or over -0.4; Not met = z-score under -0.4.

{"columns": ["molecule", "class-name"],
 "data": [
  ["COC(=O)[C@@]1(Cc2ccccc2)[C@@H]2C(=CC(=O)[C@H]2CC(=O)C(=O)N(C)C)CN1C(=O)c1ccccc1", "Not met"],
  ["CCCCN1CC=CC23O[C@@H]4/C=C\\CCC(C)OC(=O)C4[C@H]2C(=O)N(C(CO)C(C)C)[C@@H]3C1=O (stereo partly drawn)", "Met"],
  ["Cn1cccc1C(O)C1C=CC2C(=O)NC(=O)C2N1Nc1ccc(Cl)cc1Cl (stereo not drawn)", "Not met"],
  ["COCCCNC(=O)[C@@]1(Cc2ccccc2N=[N+]=[N-])COC(c2ccc(OCCCO)cc2)=N1", "Met"],
  ["CC(CO)N1C(=O)[C@@H]2[C@H]3C(=O)OCC=C[C@H]3OC23C=CCN(Cc2ccccc2)C(=O)[C@@H]13 (stereo partly drawn)", "Met"]
]}

Decide: z-score of C=C(/C(=C/C[C@H](OC(C)=O)c1cccc(OCCO)c1)c1cnc2ccccc2c1)C(C)C >= -0.4? Met

Decide: z-score of CC(=O)NCCCC[C@@H]1NC(=O)[C@@H]2C[C@H](C(=O)NCCCC[N+](C)(C)C)[C@H](c3ccc(O)cc3)N2C1=O >= -0.4? Met

Data origin, for the record: PubChem BioAssay
